The reader will find reported melting point values listed item by item below.
Give just the numeric value; °C need not be written.

Completed entries (count: 5):
>>> df
                                   compound   val
0                      CCCCCCCCCCCCCCCCCCCl  28.6
1                         Nc1ccc(C(=O)O)cn1   312
2  CC12CCC(C(=O)Cl)(OC1=O)C2(C)C (stereo not given)    66
3         O=C(O)c1cc(S(=O)(=O)F)c2ccccc2c1O   300
4                  Cc1c2ccccc2c(C)c2ccccc12   183

Q. Item under review: c1cc(OCC2CO2)cc(OCC2CO2)c1 (stereo not given) . Reported melting point?
A. 42.5

Q. Entry CN(C)P(=O)(N(C)C)N(C)C has what melting point?
A. 7.2

Q. Given NNC(=O)c1ccccc1 , state its recorded melting point.
A. 115

Q. Need melting point, item [N-]=[N+]=NC(=O)C=Cc1ccc(C=CC(=O)N=[N+]=[N-])cc1
A. 80

---

Result Type: melting point (°C)
The reply should be a number in °C, with the unit left off.

>>> df
                                   compound    result_type  val
0  CC12CCC(C(Br)(CBr)C1=O)C2(C)C (stereo not given)  melting point  109

Alright, here's another compound for you.
Q. For the compound CC(=O)Oc1ccccc1C(=O)OCC(=O)N(C)CC(N)=O , what melting point is on record?
A. 132

---

Result Type: melting point

Guide cases for melting point, answers given:
In [3]: df
Out[3]:
                                   compound    result_type            val
0           O=C(c1ccccc1)c1ccc(N2CCOCC2)cc1  melting point  142 to 145 °C
1                     COc1cccc(C=CC(=O)O)c1  melting point  116 to 119 °C
2               O=Cc1coc2c(Cl)cc(Cl)cc2c1=O  melting point  169 to 174 °C
3  CC1(C)CC(C(N)=O)C(C)(C)N1 (stereo unspecified)  melting point  129 to 131 °C

Q. Recorded melting point for Nc1nc(-c2ccc(Br)cc2)cc(C(F)(F)F)n1 , please?
A. 216 to 218 °C

Q. Look at this compound and give its reported melting point. CC(C)(C)OC(=O)N1CCN(c2ccc(C=O)cc2)CC1
A. 118 to 119 °C

Q. Look at this compound and give its reported melting point. NC(=O)CC[C@H](NC(=O)C(F)(F)F)C(=O)O
A. 146 to 150 °C

Q. Fill in the blank: the reported melting point of CCCCCCCCCCCCCCCC(=O)OCC(COP(=O)([O-])OCC[N+](C)(C)C)OC(=O)CCCCCCCCCCCCCCC (stereo unspecified) is ____.
A. 229 to 230 °C

Q. Query: melting point; subject: CCCCC(N)P(=O)(O)O (stereo unspecified)
A. 267 to 269 °C

---

Result Type: melting point

Example compounds with recorded melting point:
In [3]: df
Out[3]:
                                   compound            val
0  O=C1C(=C2C=Cc3ccc(O)cc3N2)C(=O)c2ccccc21  266 to 267 °C
1                         Cc1cccc2c(O)noc12  155 to 157 °C
2        O=C(C=Cc1ccc(-c2ccccc2)o1)c1ccccc1    98 to 99 °C

Q. For the compound O=C(c1ccccc1)N(O)c1ccccc1 , what melting point is on record?
A. 119 to 123 °C

Q. Please look up its melting point: COC(=O)c1cc2cc(N)ccc2s1
A. 178 to 179 °C

Q. Record request: melting point value, item CCOC(=O)c1ccc(Oc2ccc(C)nn2)cc1
A. 70 to 73 °C

Q. Would you mind telling me what melting point value was observed for Cc1ccc(C(=O)O)c(N)c1 ?
A. 160 to 161 °C

Q. Record request: melting point value, item NCS(=O)(=O)O
A. 180 to 185 °C

Q. Requested read-out: melting point. Entry: N#CC1(C(=O)c2ccccc2)C(c2ccccc2)NC(=O)NC1c1ccccc1 (stereo not given)
A. 215 to 216 °C

Q. So what's the measured melting point for this one? COc1ccc2[nH]cc(CC(=O)O)c2c1
A. 148 to 150 °C

---

Property: melting point; scope: individual molecules
State just the number; it will be interpreted in °C.

Look over these answered cases.
>>> print(df.to_string())
                                   molecule  unit  val
0             Cc1nc(-c2ccc(Cl)cc2)sc1C(=O)O    °C  251
1  OC1OCC(OCc2ccccc2)C(OCc2ccccc2)C1OCc1ccccc1 (configuration not stated)    °C   78

Q. Consider the molecule shown here: Nn1c(Cc2ccccc2)nc2ccccc2c1=O What is its recorded melting point?
A. 111

---

Below, each entry is listed with its recorded melting point.

Would you please look over these solved cases?
>>> df
                                   molecule            val
0                      O=C1OC(=O)C2=C1SCCS2  213 to 214 °C
1         O=C(C=CC=Cc1ccccc1)C=CC=Cc1ccccc1  139 to 144 °C
2  CC(=O)OC1CC2C(C)C(=O)C3(C(OC(C)=O)CC4C(C)(C)CCC(OC(C)=O)C4(C=O)C13)C2OC(C)=O (stereo not drawn)  250 to 252 °C
3                    S=c1[nH]c2ccc(Cl)cc2o1  229 to 232 °C
4       c1ccc(CN2CCc3c([nH]c4ccccc34)C2)cc1  165 to 170 °C

Q. # input molecule: O=[N+]([O-])c1cc(CO)ccc1O ; wanted: its melting point
A. 94 to 98 °C

Q. What value of measured melting point is listed for NC1CCC(c2ccccc2)CC1CO (stereo not drawn) ?
A. 116 to 122 °C

Q. So what's the measured melting point for this one? O=S(=O)(N(c1ccccn1)S(=O)(=O)C(F)(F)F)C(F)(F)F
A. 39 °C

Q. What value of melting point has been recorded for this entry: CC(C)(Oc1ccc(C#N)cc1)C(=O)O
A. 117 to 120 °C

Q. What melting point value was documented for this molecule, O=Cc1csc2ccccc12 ?
A. 56 to 58 °C

Q. So what's the measured melting point for this one? NCCCCCCCCCN
A. 38 °C

Q. Would you mind telling me what melting point value was observed for CC(CCl)OP(=O)(OC(C)CCl)OC(C)CCl (stereo not drawn) ?
A. -40 °C

Q. Give its melting point value. Item: CCc1ccccc1O
A. 18 °C

---

Result Type: melting point

Q. I would be grateful if you could share the reported melting point for CN(C)c1cccc2c(S(=O)(=O)NC3CC(C)(C)N(O)C3(C)C)cccc12 (stereo unspecified) .
A. 157 to 161 °C

Q. Consider the molecule shown here: O=C(C=Cc1ccc(C=CC(=O)Nc2ccccc2)cc1)Nc1ccccc1 What is its recorded melting point?
A. 292 to 294 °C

Q. // lookup melting point for CC(C)C(NC(=O)C(C)(C)Br)C(C)C
A. 80 to 82 °C

Q. Which melting point is listed for CC(=O)OC1CCC2(C)C(CC(=O)C3C2CC(OC(C)=O)C2(C)C(C(C)CCC(=O)O)CCC32)C1 (stereo unspecified) ?
A. 105 to 107 °C

Q. # input molecule: O=S(=O)(Cl)c1ccc2c(c1)OCO2 ; wanted: its melting point
A. 48 to 51 °C

Q. Quick check: melting point of COC(=O)Cn1nnc(N2CCOCC2)n1 ?
A. 100 to 103 °C

Q. Requested field: melting point. Item: CC(Oc1ccc(O)cc1)C(=O)O (stereo unspecified)
A. 143 to 147 °C

Q. Quick one: melting point for Cc1nn(C)c(C)c1S(=O)(=O)Cl ?
A. 39 to 42 °C

---

Mark each entry rule met if its melting point sits below 90 °C, and rule not met for all others.

>>> df
              smiles_code     class
0  N#CCc1ccccc1OCc1ccccc1  rule met

Q. Does the reported melting point of N#C/C(=C\c1cccnc1)c1nc2ccccc2[nH]1 stay below 90 °C?
A. rule not met

Q. Given the entry CC(C)(OC1CCCCC1)C(=O)O , would its reported melting point be below 90 °C?
A. rule met

Q. A record lists OCCNCCNCCO . Is its melting point below 90 °C?
A. rule not met

Q. I'd appreciate it if you could check whether Cc1cccc2c1C(=O)OC2 has melting point smaller than 90 °C.
A. rule met

Q. melting point strictly < 90 °C for this molecule? Cc1c(/C=C/c2ccc(Cl)cc2Cl)c2ccccc2n1S(=O)(=O)c1ccccc1
A. rule not met
